molecular target: Angiotensin-converting enzyme (Homo sapiens); assay: Inhibition of human somatic ACE C-terminal domain
result type: Ki (nM)
Numbers only here, please. The scale is nM.

Q) Dear colleague, please send me the reported Ki for O=C(N[C@@H](Cc1ccccc1)P(=O)(O)C[C@H](Cc1cc(-c2ccccc2)no1)C(=O)N[C@@H](Cc1c[nH]c2ccccc12)C(=O)O)OCc1ccccc1 when you can.
A) 36

Q) Name the recorded Ki of the molecule listed here: O=C(N[C@@H](Cc1ccccc1)P(=O)(O)CC(Cc1cc(-c2ccccc2)no1)C(=O)N[C@@H](Cc1c[nH]c2ccccc12)C(=O)O)OCc1ccccc1 (some centres not stated)
A) 16

Q) Using the record for C[C@H](NC(=O)C(CC1CC(c2ccccc2)=NO1)CP(=O)(O)[C@H](Cc1ccccc1)NC(=O)OCc1ccccc1)C(=O)O (some centres not stated) , state its measured Ki.
A) 5

Q) Answer with reported Ki of O=C(N[C@@H](Cc1ccccc1)P(=O)(O)CC(CC1CC(c2ccccc2)=NO1)C(=O)N[C@@H](Cc1c[nH]c2ccccc12)C(=O)O)OCc1ccccc1 (some centres not stated)
A) 13

Q) State, in one line, measured Ki of O=C(N[C@@H](Cc1ccccc1)P(=O)(O)CC(CC1CC(c2ccc(C(F)(F)F)cc2)=NO1)C(=O)N[C@@H](Cc1c[nH]c2ccccc12)C(=O)O)OCc1ccccc1 (some centres not stated)
A) 20

Q) In one line, give reported Ki of the entry O=C(N[C@@H](Cc1ccccc1)P(=O)(O)C[C@@H](Cc1cc(-c2ccccc2)no1)C(=O)N[C@@H](Cc1ccccc1)C(=O)O)OCc1ccccc1 .
A) 0.4

Q) Item O=C(N[C@@H](Cc1ccccc1)P(=O)(O)CC(Cc1cc(-c2ccccc2)no1)C(=O)N[C@@H](Cc1ccccc1)C(=O)O)OCc1ccccc1 (single isomer, unassigned) : provide Ki
A) 3.8

Q) For O=C(N[C@@H](Cc1ccccc1)P(=O)(O)CC(Cc1ccc(-c2ccccc2)cc1)C(=O)N[C@@H](Cc1c[nH]c2ccccc12)C(=O)O)OCc1ccccc1 (some centres not stated) , write its Ki.
A) 12

Q) Item O=C(N[C@@H](Cc1ccccc1)P(=O)(O)C[C@@H](Cc1cc(-c2ccccc2)no1)C(=O)N[C@@H](Cc1c[nH]c2ccccc12)C(=O)O)OCc1ccccc1 : provide Ki
A) 1.4

Q) Supply Ki value. Item: O=C(N[C@@H](Cc1ccccc1)P(=O)(O)CC(CC1CC(c2ccc(-c3ccccc3)cc2)=NO1)C(=O)N[C@@H](Cc1c[nH]c2ccccc12)C(=O)O)OCc1ccccc1 (some centres not stated)
A) 25

Q) Kindly indicate its recorded Ki. Item: O=C(N[C@@H](Cc1ccccc1)P(=O)(O)C1CCC[C@H]1C(=O)N[C@@H](Cc1c[nH]c2ccccc12)C(=O)O)OCc1ccccc1 (single isomer, unassigned)
A) 3

Q) Given the molecule O=C(N[C@H]1CCS[C@H]2CCC[C@@H](C(=O)O)N2C1=O)[C@@H](S)Cc1ccccc1 [OMAPATRILAT] , write its reported Ki.
A) 6

meta.source: ChEMBL document CHEMBL1156752
